Positions of bridges follow the written chain, without caps; N, C: chain ends. Non-standard residues stand in square brackets, D forms with d. Residues, ends and D or L forms follow the SMILES beside them. *: point of attachment. Phenylacetyl(4-CF3) = O=C(Cc1ccc(C(F)(F)F)cc1)*; Benzoyl(4-CF3) = O=C(c1ccc(C(F)(F)F)cc1)*; Phenylacetyl(4-Me) = Cc1ccc(CC(=O)*)cc1; Heptanoyl(6-Me) = CC(C)CCCCC(=O)*; Decanoyl = CCCCCCCCCC(=O)*; Dab = NCC[C@H](N)C(=O)O; Abu = CC[C@H](N)C(=O)O; Dap = NC[C@H](N)C(=O)O
Read-out record for Acinetobacter baumannii: Minimum inhibitory concentration, Ab A ATCC 17978
One number for each entry, in µg/mL.

Sample answers from the record:
{"columns": ["molecule", "study_system", "result_unit", "recorded_number"],
 "data": [
  ["CC(C)C[C@H]1NC(=O)[C@H](CCN)NC(=O)[C@@H](NC(=O)[C@H](CN)NC(=O)[C@@H](NC(=O)[C@H](CCN)NC(=O)c2ccc(C(F)(F)F)cc2)[C@@H](C)O)CCNC(=O)[C@H]([C@@H](C)O)NC(=O)[C@H](CCN)NC(=O)[C@H](CCN)NC(=O)[C@H]([C@@H](C)O)NC1=O [Compound 56] ({Benzoyl(4-CF3)}-[Dab]T[Dap][Dab][Dab][dL]T[Dab][Dab]T; lactam 4-C)", "Acinetobacter baumannii", "µg/mL", 1],
  ["CC[C@@H]1NC(=O)[C@@H](CC(C)C)NC(=O)[C@H](CCN)NC(=O)[C@@H](NC(=O)[C@H](CN)NC(=O)[C@@H](NC(=O)[C@H](CCN)NC(=O)Cc2ccc(C(F)(F)F)cc2)[C@@H](C)O)CCNC(=O)[C@H]([C@@H](C)O)NC(=O)[C@H](CCN)NC(=O)[C@H](CCN)NC1=O [Compound 127] ({Phenylacetyl(4-CF3)}-[Dab]T[Dap][Dab][Dab][dL][Abu][Dab][Dab]T; lactam 4-C)", "Acinetobacter baumannii", "µg/mL", 1],
  ["CC[C@@H]1NC(=O)[C@@H](CC(C)C)NC(=O)[C@H](CCN)NC(=O)[C@@H](NC(=O)[C@H](CN)NC(=O)[C@@H](NC(=O)[C@H](CCN)NC(=O)Cc2ccc(C)cc2)[C@@H](C)O)CCNC(=O)[C@H]([C@@H](C)O)NC(=O)[C@H](CCN)NC(=O)[C@H](CCN)NC1=O [Compound 80] ({Phenylacetyl(4-Me)}-[Dab]T[Dap][Dab][Dab][dL][Abu][Dab][Dab]T; lactam 4-C)", "Acinetobacter baumannii", "µg/mL", 1]
]}

Dear reader, for each entry below, please note its Minimum inhibitory concentration, Ab A ATCC 17978.
1. CCCCCCCCCC(=O)N[C@@H](CCN)C(=O)N[C@H](C(=O)N[C@@H](CN)C(=O)N[C@H]1CCNC(=O)[C@H]([C@@H](C)O)NC(=O)[C@H](CCN)NC(=O)[C@H](CCN)NC(=O)[C@H]([C@@H](C)O)NC(=O)[C@@H](CC(C)C)NC(=O)[C@H](CCN)NC1=O)[C@@H](C)O [Compound 37] (Decanoyl-[Dab]T[Dap][Dab][Dab][dL]T[Dab][Dab]T; lactam 4-C)
2. CC(C)CCCCC(=O)N[C@@H](CCN)C(=O)N[C@H](C(=O)N[C@@H](CN)C(=O)N[C@H]1CCNC(=O)[C@H]([C@@H](C)O)NC(=O)[C@H](CCN)NC(=O)[C@H](CCN)NC(=O)[C@H](C)NC(=O)[C@@H](CC(C)C)NC(=O)[C@H](CCN)NC1=O)[C@@H](C)O [Compound 65] ({Heptanoyl(6-Me)}-[Dab]T[Dap][Dab][Dab][dL]A[Dab][Dab]T; lactam 4-C)

Result block:
1: 0.5; 2: 0.25
